# Tested on: human red blood cells (hRBCs)
# experimentSummary: K+ leakage from hRBCs (flame atomic emission)
# Type: cell-based
reportedEndpoint: peptide concentration for 50% K+ ion leakage, fold greater than wild-type Gramicidin A

# compound, reportedResult
records = [
    ("CC(C)C[C@@H](NC(=O)[C@H](C)NC(=O)CNC(=O)[C@@H](NC=O)C(C)C)C(=O)N[C@@H](C)C(=O)N[C@@H](C(=O)N[C@H](C(=O)N[C@@H](C(=O)N[C@@H](Cc1c[nH]c2ccccc12)C(=O)N[C@H](CC(C)C)C(=O)N[C@@H](Cc1c[nH]c2ccccc12)C(=O)N[C@H](CC(C)C)C(=O)N[C@@H](Cc1c[nH]c2ccccc12)C(=O)N[C@H](CCCCN)C(=O)N[C@@H](Cc1c[nH]c2ccccc12)C(=O)NCCO)C(C)C)C(C)C)C(C)C (racemic)", "~100 fold"),
]

// provenance: patent US9243037B2
